Experiment: In vivo zebrafish kinetics of BPZ (water exposure, organ concentrations by LC-MS/MS)
Design: species or system zebrafish (Danio rerio)
Conditions: zebrafish, 17 μg/L (water concentration); 17 μg/L in water, female, carcass; observed
measured metric: half-life
Answer shape: numeric part, then the unit.

Please look up its half-life: Oc1ccc(C2(c3ccc(O)cc3)CCCCC2)cc1
119 h

---

Assay: In vitro biotransformation rate, rainbow trout liver S9 (OECD TG 319)
Assay type: in vitro ADME
Conditions: both series combined
measured metric: CL

Examples with their reported CL follow.
CC(c1ccccc1)(c1ccc(O)cc1)c1ccc(O)cc1 1.80 mL/(h x mg)
Oc1ccc(Cc2ccc(O)cc2)cc1 0.31 mL/(h x mg)
CCC(C)(c1ccc(O)cc1)c1ccc(O)cc1 0.96 mL/(h x mg)
Cc1cc(C(C)(C)c2ccc(O)c(C)c2)ccc1O 1.03 mL/(h x mg)
Oc1ccc(C2(c3ccc(O)cc3)CCCCC2)cc1 0.30 mL/(h x mg)
Oc1ccc(C(c2ccc(O)cc2)(C(F)(F)F)C(F)(F)F)cc1 0.78 mL/(h x mg)

Proceed to the following item.
Returns the measured CL for the input molecule. Input: CC(C)(c1cc(Br)c(O)c(Br)c1)c1cc(Br)c(O)c(Br)c1
4.18 mL/(h x mg)
